From: patent US20250236608A1

Consider the following molecules and their measured pIC50 readings.
# SYSTEM: pEGFR (Tyr1068) in PC-9 cells (Ex19Del) (Homo sapiens (Human), UniProt P00533, DEL746-750)
# Sequence (P00533 other isoform, or with tags, fused parts or gaps del 746-750): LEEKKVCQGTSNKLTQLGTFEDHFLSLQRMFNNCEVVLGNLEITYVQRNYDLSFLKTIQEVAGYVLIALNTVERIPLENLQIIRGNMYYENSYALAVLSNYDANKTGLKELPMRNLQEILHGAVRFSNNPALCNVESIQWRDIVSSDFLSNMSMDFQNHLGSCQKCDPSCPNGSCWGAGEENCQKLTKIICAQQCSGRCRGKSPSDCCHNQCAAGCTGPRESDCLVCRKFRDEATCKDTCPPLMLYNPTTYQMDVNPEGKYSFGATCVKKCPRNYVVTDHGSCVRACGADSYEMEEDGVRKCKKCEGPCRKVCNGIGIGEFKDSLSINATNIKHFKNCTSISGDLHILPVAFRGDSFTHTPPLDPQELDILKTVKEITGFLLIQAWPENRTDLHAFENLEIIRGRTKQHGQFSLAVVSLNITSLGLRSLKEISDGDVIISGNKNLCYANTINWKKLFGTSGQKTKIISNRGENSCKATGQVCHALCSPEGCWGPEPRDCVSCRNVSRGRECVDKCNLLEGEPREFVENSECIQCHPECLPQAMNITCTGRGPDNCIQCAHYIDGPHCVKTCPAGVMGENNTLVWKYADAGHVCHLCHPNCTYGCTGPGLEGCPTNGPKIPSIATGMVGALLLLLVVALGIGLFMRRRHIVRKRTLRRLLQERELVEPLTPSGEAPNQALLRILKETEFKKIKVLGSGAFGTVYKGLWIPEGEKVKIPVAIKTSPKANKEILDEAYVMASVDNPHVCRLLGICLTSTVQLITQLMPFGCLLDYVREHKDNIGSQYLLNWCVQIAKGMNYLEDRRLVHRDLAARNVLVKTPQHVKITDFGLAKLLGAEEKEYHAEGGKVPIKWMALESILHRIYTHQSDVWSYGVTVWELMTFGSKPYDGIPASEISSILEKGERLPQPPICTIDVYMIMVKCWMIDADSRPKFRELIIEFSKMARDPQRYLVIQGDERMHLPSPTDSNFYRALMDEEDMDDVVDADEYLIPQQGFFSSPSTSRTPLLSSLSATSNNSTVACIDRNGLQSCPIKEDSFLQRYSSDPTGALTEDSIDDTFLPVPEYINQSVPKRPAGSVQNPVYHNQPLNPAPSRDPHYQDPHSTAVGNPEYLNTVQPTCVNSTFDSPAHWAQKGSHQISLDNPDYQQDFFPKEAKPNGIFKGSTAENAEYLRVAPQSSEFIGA
# TEST_PROTOCOL: PC-9 pEGFR AlphaLISA assay
# Type: cell-based
# APPLIED_CONDITIONS: 4 hours incubation, p-EGFR (Tyr1068) AlphaLISA, read-out: Ext pEGFR_PC-9 Ex19Del IC50
Value format note: pIC50 is -log10 of concentration (mol/L); just state the number.

>  <MOLECULE>
COc1cc2ncnc(-c3cn(C)nc3-c3ccccc3)c2c(F)c1NC(=O)C1CCC1

>  <pIC50>
8.28

$$$$

Query: Give the measured pIC50 of COc1cc2ncnc(-c3cn(C)nc3-c3ccccc3)c2cc1NC(=O)N1CCO[C@@H]2C[C@@H]21 (stereo in doubt) .
Reply: 8.51

Query: Follow-up entry: COc1cc2ncnc(-c3cn(C)nc3-c3ccccc3)c2cc1NC(=O)c1cnc(C)s1
Reply: 9.30

Query: Another molecule to check: CCn1cc(-c2ncnc3cc(OC)c(NC(=O)c4cccnc4)cc23)c(-c2ccccc2)n1
Reply: 8.68

Query: Moving on to CCC(=O)Nc1cc2c(-c3cn(C)nc3-c3ccccc3)ncnc2cc1C#CCN1CCOCC1
Reply: 8.55

Query: Moving on to CCC(=O)Nc1cc2c(-c3cn(C4CCOCC4)nc3-c3ccccc3)ncnc2cc1OC
Reply: 8.89

Query: Same lookup for CCOc1cc2ncnc(-c3cn(C)nc3-c3ccccc3)c2nc1NC1CCOCC1 , please.
Reply: 9.70

Query: Record: COc1cc2ncnc(-c3cn(C)nc3-c3ccccc3F)c2cc1NC(=O)C1(CN(C)C)CC1
Reply: 8.89

Query: Input COc1cc2ncnc(-c3cn(C)nc3-c3ccccc3)c2nc1NC(=O)c1cnn(C(F)(F)F)c1
Reply: 8.57

Query: How about COc1cc2ncnc(-c3cn(C)nc3-c3ccc(F)cc3F)c2cc1N1CCOCC1 ?
Reply: 8.49
